The measurements presented in this section are drawn from ChEMBL document CHEMBL1123334.

System Tested: Dopamine receptor
Assay Comment: In vitro binding affinity to Dopamine receptors of rat striatal membranes by [3H]spiroperidol displacement.
Recorded log10 Ki by entry
Endpoint: log10 Ki (log10 of the value in nM)

Compound | System Tested | log10 Ki
CSc1c(Cl)nc(N2CCN(C)CC2)nc1NC1CCCC1 | Dopamine receptor | 3.08
CSc1c(Cl)nc(N2CCN(C)CC2)nc1NC(C)C | Dopamine receptor | 2.81
CSc1c(Cl)nc(N2CCN(C)CC2)nc1NC(C)(C)C | Dopamine receptor | 2.96
CC(COc1ccccc1)N(CCCl)Cc1ccccc1 (stereo unspecified) [PHENOXYBENZAMINE] | Dopamine receptor | 2.08
COc1c(Cl)nc(N2CCN(C)CC2)nc1NC1CCCC1 | Dopamine receptor | 2.83
CSc1c(Cl)nc(N2CCN(C)CC2)nc1NCCc1ccccc1 | Dopamine receptor | 3.15

* * *

System Tested: Adrenergic receptor alpha-2 (Rattus norvegicus, UniProt P22086+P19328+P22909)
Endpoint: log10(Ki) (log10 of the value in nM)

Structure As Smiles | System Tested | log10(Ki)
CN1CCN(c2nc(Cl)c(Cl)c(NC3CCCC3)n2)CC1 | Adrenergic receptor alpha-2 (Rattus norvegicus, UniProt P22086+P19328+P22909) | 2.08
CN1CCN(c2nc(Cl)c(Br)c(NC3CCCC3)n2)CC1 | Adrenergic receptor alpha-2 (Rattus norvegicus, UniProt P22086+P19328+P22909) | 2.15
CNc1nc(N2CCN(C)CC2)nc(Cl)c1SC | Adrenergic receptor alpha-2 (Rattus norvegicus, UniProt P22086+P19328+P22909) | 2.56
CNc1nc(N2CCN(C)CC2)nc(Cl)c1Cl | Adrenergic receptor alpha-2 (Rattus norvegicus, UniProt P22086+P19328+P22909) | 1.64
CSc1c(Cl)nc(N2CCN(C)CC2)nc1NCCc1ccccc1 | Adrenergic receptor alpha-2 (Rattus norvegicus, UniProt P22086+P19328+P22909) | 2.96

* * *

System Tested: Adrenergic receptor alpha-1 (Rattus norvegicus, UniProt P15823+P23944+P43140)
Assay Comment: In vitro binding affinity was measured as the inhibition of [3H]WB-4101 binding to alpha-1 adrenergic receptor of rat cortical membranes
Type: cell membranes, Membrane
Recorded Ki by entry
Endpoint: Ki (nM)

Compound | Result Qualifier | Quantitative Readout
CSc1c(Cl)nc(N2CCNCC2)nc1NC(C)C | = | 500
CSc1c(Cl)nc(N2CCN(C)CC2)nc1NCc1ccccc1 | = | 100
CNc1nc(Cl)c(SC)c(N2CCN(C)CC2)n1 [MEZILAMINE] | = | 91
CCNc1nc(N2CCN(C)CC2)nc(Cl)c1SC | = | 1800
CSc1c(N)nc(N2CCN(C)CC2)nc1Cl | = | 820
CNc1nc(N2CCN(C)CC2)nc(Cl)c1Br | = | 180
CC(C)Nc1nc(N2CCN(C)CC2)nc(Cl)c1Cl | = | 42
CNc1cc(Cl)nc(N2CCN(C)CC2)n1 | = | 280
CC(C)Nc1cc(Cl)nc(N2CCN(C)CC2)n1 | > | 180
CSc1c(Cl)nc(N2CCN(C)CC2)nc1NC1CCCCC1 | = | 240
CSc1c(Cl)nc(N2CCN(C)CC2)nc1Nc1ccccc1 | = | 140
CSc1c(Cl)nc(N2CCN(C)CC2)nc1NC(C)C | = | 360
